The measurements presented in this section are drawn from paper PMC9115729.

assay: Aqueous solubility by the shake flask method; assay type: physicochemical; details: PBS buffer, 37 °C, pH 7.4, aqueous buffer, thermodynamic from solid
property-measured: solubility at 24 h

Q. Returns the measured solubility at 24 h for the input compound. Input: O=C(Cc1ccccc1)Nc1ccc(CCSc2nnc(NC(=O)Cc3ccccc3)s2)nn1
A. < 1 µM

----------
molecular target: human kidney-type glutaminase (hKGA124-669) (Homo sapiens); test: in vitro GLS assay with L-[3H]-glutamine as substrate; format: biochemical; conditions: comparison with compounds 8 and 3a
Sequence (O94925 124-669): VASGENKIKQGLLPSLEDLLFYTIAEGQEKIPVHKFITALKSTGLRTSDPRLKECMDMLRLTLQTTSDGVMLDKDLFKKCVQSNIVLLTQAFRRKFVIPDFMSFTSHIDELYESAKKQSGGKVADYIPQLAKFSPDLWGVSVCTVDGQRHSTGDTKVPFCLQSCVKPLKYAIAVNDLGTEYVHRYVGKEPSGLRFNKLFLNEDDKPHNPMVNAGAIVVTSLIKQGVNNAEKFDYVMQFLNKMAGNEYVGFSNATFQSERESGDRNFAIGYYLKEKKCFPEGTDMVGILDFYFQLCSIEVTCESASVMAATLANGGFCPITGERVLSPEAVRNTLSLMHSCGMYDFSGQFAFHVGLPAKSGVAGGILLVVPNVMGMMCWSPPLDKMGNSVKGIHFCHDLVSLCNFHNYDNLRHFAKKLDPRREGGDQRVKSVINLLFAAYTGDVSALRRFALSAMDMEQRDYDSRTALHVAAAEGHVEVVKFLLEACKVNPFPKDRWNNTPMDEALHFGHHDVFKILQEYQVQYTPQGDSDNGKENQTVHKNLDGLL

item-smiles	GLS inhibitory potency in words
O=C(Cc1ccccc1)Nc1ccc(CCSc2nnc(NC(=O)Cc3ccccc3)s2)nn1	comparable
Nc1nnc(SCCc2ccc(NC(=O)Cc3ccccc3)nn2)s1	comparable
